# PROTOCOL SUMMARY: Oral bioavailability in dog at 2.7 mg/kg
# Assay type: ADME, organism-based, Canis lupus familiaris
# CONDITIONS: in vivo
READOUT: bioavailability (%)
# output: bare number, implied unit %

Query block: Entry Cl.N#Cc1ccccc1Cn1c(N2CCC[C@@H](N)C2)ncc(F)c1=O has what bioavailability?
Result block: 80

---

# PROTOCOL SUMMARY: Half life in rat at 14 mg/kg, po
# Type: ADME, organism-based
# Parameters: dose 14 mg/kg, route oral
# CONDITIONS: in vivo
Assignment: determine reported half-life for the given compounds.
Answer with the figure and its unit, nothing else.

Query block: So what's the measured half-life for this one? N#Cc1ccccc1Cn1c(N2CCC[C@@H](N)C2)nccc1=O.O=C(O)C(F)(F)F
Result block: 1 h

Query block: Fill in the blank: the reported half-life of N#Cc1ccccc1Cn1c(N2CCC[C@@H](N)C2)ncc(F)c1=O.O=C(O)C(F)(F)F is ____.
Result block: 1.5 h

---

# PROTOCOL SUMMARY: Half life in dog at 0.8 mg/kg, iv
# Type: ADME, organism-based, Canis lupus familiaris
# Set-up: dose 0.8 mg/kg, route intravenous
# CONDITIONS: in vivo
READOUT: half-life (h)
Give the quantity in h, number only.

Query block: Fill in the blank: the reported half-life of Cl.N#Cc1ccccc1Cn1c(N2CCC[C@@H](N)C2)ncc(Cl)c1=O is ____.
Result block: 5.2

---

# PROTOCOL SUMMARY: Half life in rat liver microsomes by LC/MS analysis
# Type: ADME, Microsome
Please respond with reported log10 of half-life for every item in the list.
// do not treat as linear: log10 of half-life, unit min

Query block: Which log10 of half-life is reported for this compound? N#Cc1ccccc1Cn1c(N2CCC[C@@H](N)C2)nc(-c2ccccc2)cc1=O
Result block: 1.08

Query block: Item under review: N#Cc1ccccc1Cn1c(N2CCC[C@@H](N)C2)ncc(Cl)c1=O . Reported log10 of half-life?
Result block: 2.30

Query block: Entry N#Cc1ccccc1Cn1c(N2CCC[C@@H](N)C2)nccc1=O has what log10 of half-life?
Result block: 2.12

Query block: Can you share its log10 of half-life? I mean this compound: Cn1c(=O)cc(N2CCC[C@@H](N)C2)n(Cc2ccccc2C#N)c1=O
Result block: 2.30

Query block: Param item = CCn1c(=O)cc(N2CCC[C@@H](N)C2)n(Cc2ccccc2C#N)c1=O ; retrieve measured log10 of half-life.
Result block: 1.51

Query block: Give the measured log10 of half-life of N#Cc1ccccc1Cn1c(N2CCC[C@@H](N)C2)ncc(-c2cc[nH]c2)c1=O .
Result block: 1.85

Query block: Value lookup for log10 of half-life; key = N#Cc1ccsc1Cn1c(N2CCC[C@@H](N)C2)ncc(Br)c1=O
Result block: 1.18

Query block: # log10 of half-life lookup, item CCc1cnc(N2CCC[C@@H](N)C2)n(Cc2ccccc2C#N)c1=O
Result block: 0.85

Query block: Look up log10 of half-life: Cn1c(=O)cc(N2CCC[C@@H](N)C2)n(Cc2ccc(F)cc2Cl)c1=O
Result block: 1.83

Query block: log10 of half-life lookup needed for COc1cnc(N2CCC[C@@H](N)C2)n(Cc2ccccc2C#N)c1=O , thanks.
Result block: 1.30

Query block: Given the compound N#Cc1ccccc1Cn1c(N2CCC[C@@H](N)C2)ncc(I)c1=O , what is its reported log10 of half-life?
Result block: 1.77

Query block: I am curious: what log10 of half-life value has been reported for C=Cc1cnc(N2CCC[C@@H](N)C2)n(Cc2ccccc2C#N)c1=O ?
Result block: 0.78

Query block: Return reported log10 of half-life; argument: Cn1c(=O)cc(N2CCC[C@@H](N)C2)n(Cc2cc(Cl)ccc2Cl)c1=O
Result block: 1.00

Query block: I am curious: what log10 of half-life value has been reported for N#Cc1ccccc1Cn1c(N2CCC[C@@H](N)C2)ncc(-c2ccoc2)c1=O ?
Result block: 0.60

Query block: Could you tell me which log10 of half-life is on file for N#Cc1ccccc1Cn1c(N2CCC[C@@H](N)C2)ncc(/C=C/c2cccnc2)c1=O ?
Result block: 1.43

Query block: Please look up its log10 of half-life: Cc1nc(N2CCC[C@@H](N)C2)n(Cc2ccccc2C#N)c(=O)c1Br
Result block: 1.36

Query block: Could you tell me which log10 of half-life is on file for Cc1nc(N2CCC[C@@H](N)C2)n(Cc2ccccc2C#N)c(=O)c1C ?
Result block: 1.00

---

# PROTOCOL SUMMARY: AUC in rat at 11 mg/kg, po
# Format: ADME, organism-based
# Parameters: dose 11 mg/kg, route oral
# CONDITIONS: plasma
READOUT: AUC
# answer = value followed by unit

Query block: Which AUC value belongs to Cl.N#Cc1ccccc1Cn1c(N2CCC[C@@H](N)C2)ncc(Cl)c1=O ?
Result block: 2800 ng·h/mL

---

# PROTOCOL SUMMARY: Oral bioavailability in rat at 11 mg/kg
# Type: ADME, organism-based
# CONDITIONS: in vivo
READOUT: bioavailability (%)
Field: numeric (%). Do not append units.

Query block: Looking for the measured bioavailability of Cl.N#Cc1ccccc1Cn1c(N2CCC[C@@H](N)C2)ncc(Cl)c1=O , can you help?
Result block: 65

---

# PROTOCOL SUMMARY: Oral bioavailability in dog at 1.8 mg/kg
# Type: ADME, organism-based, Canis lupus familiaris
# CONDITIONS: in vivo
READOUT: bioavailability
Answer with the figure and its unit, nothing else.

Query block: If you can, please state the reported bioavailability value of N#Cc1ccccc1Cn1c(N2CCC[C@@H](N)C2)nccc1=O.O=C(O)C(F)(F)F .
Result block: 78%

---

# PROTOCOL SUMMARY: Volume of distribution at steady state in rat at 1.4 mg/kg, iv and 14 mg/kg, po
# Assay type: ADME, organism-based
# CONDITIONS: in vivo, read-out: Vdss
READOUT: Vd (L/kg)
# number only, unit L/kg dropped from output

Query block: Which Vd reading was recorded for the compound N#Cc1ccccc1Cn1c(N2CCC[C@@H](N)C2)nccc1=O.O=C(O)C(F)(F)F ?
Result block: 4.8

---

# Test system: Macaca fascicularis
# PROTOCOL SUMMARY: in vivo
# CONDITIONS: cynomolgus monkey, iv, 0.93 mg/kg
READOUT: clearance (mL/min/kg)
Please respond with the number in mL/min/kg and leave the unit unwritten.

Query block: Name the recorded clearance for Cl.Cn1c(=O)cc(N2CCC[C@@H](N)C2)n(Cc2cc(F)ccc2C#N)c1=O .
Result block: 10

---

# PROTOCOL SUMMARY: Volume of distribution at steady state in monkey at 1.1 mg/kg, iv and 7.6 mg/kg, po
# Format: ADME, organism-based, Macaca mulatta
# CONDITIONS: rhesus monkey, in vivo, read-out: Vdss
READOUT: Vd (L/kg)
Record the value in L/kg, omitting the unit from your answer.

Query block: So what does the record say about Vd for N#Cc1ccccc1Cn1c(N2CCC[C@@H](N)C2)ncc(Br)c1=O ?
Result block: 4.2

---

# PROTOCOL SUMMARY: Volume of distribution at steady state in monkey at 1.6 mg/kg, iv and 2.1 mg/kg, po
# Assay type: ADME, organism-based, Macaca mulatta
# CONDITIONS: rhesus monkey, in vivo, read-out: Vdss
READOUT: Vd (L/kg)
Please respond with the number in L/kg and leave the unit unwritten.

Query block: May I ask what Vd has been recorded for N#Cc1ccccc1Cn1c(N2CCC[C@@H](N)C2)ncc(F)c1=O.O=C(O)C(O)C(O)C(=O)O [TARTARATE] ?
Result block: 3.2

---

# PROTOCOL SUMMARY: Half life in rat liver microsomes by LC/MS analysis
# Format: ADME, Microsome
Field: half-life. Provide a value for each of the molecules that follow.

Query block: Entry under review: N#Cc1ccc(F)cc1Cn1c(N2CCC[C@@H](N)C2)ncc(Br)c1=O . Reported half-life?
Result block: 41 min

Query block: half-life lookup needed for Cn1c(=O)cc(N2CCC[C@@](C)(N)C2)n(Cc2cc(F)ccc2C#N)c1=O , thanks.
Result block: 35 min

Query block: Any idea what its half-life is? The molecule is N#Cc1ccccc1Cn1c(N2CCC[C@@H](N)C2)ncc(/C=C/c2ccccc2)c1=O
Result block: 34 min

Query block: Form field: reported half-life of Cn1c(=O)c(Cl)c(N2CCC[C@@H](N)C2)n(Cc2ccccc2C#N)c1=O
Result block: 56 min

Query block: Look up half-life for this molecule: N[C@@H]1CCCN(c2cc(=O)[nH]c(=O)n2Cc2ccccc2Br)C1
Result block: > 118 min

---

# PROTOCOL SUMMARY: Half life in rat at 1.4 mg/kg, iv
# Assay type: ADME, organism-based
# Parameters: dose 1.4 mg/kg, route intravenous
# CONDITIONS: in vivo
READOUT: half-life
Entry format: amount then unit.

Query block: Can you share its half-life? I mean this compound: N#Cc1ccccc1Cn1c(N2CCC[C@@H](N)C2)nccc1=O.O=C(O)C(F)(F)F
Result block: 44.4 min

Every entry's value here was drawn from ChEMBL document CHEMBL1649419.
